# Test system: Human papillomavirus type 1a protein E7 (residues 44-93)
# assay-summary: HPV1a E7 fragment binders on microarrays, primary screen, biochemical, small-molecule microarray, residues 44-93, 635 nm fluorescence (AID 1108);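 also: E7 fragment applied at 1 µg/mL in TBST for 1 h at 4 C; score combines spot fluorescence with its signal to noise ratio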
# experimental-setup: small-molecule microarray binding, fluorescence 635 nm; higher = more signal
assay-metric: composite z-score

{"molecule": "Cc1ccc2[nH]c3nc(CCCn4ccnc4-c4ccccc4)nnc3c2c1", "assay-metric": "composite z-score", "result": 0.0596}
{"molecule": "COc1ccc(COC(=O)NN=C2C[C@@H](O)[C@@H](O)[C@@H]3[C@@H]4C(=O)N(Cc5ccc6c(c5)OCO6)C(=O)[C@@H]4CC[C@H]23)cc1", "assay-metric": "composite z-score", "result": -0.433}
{"molecule": "CC(=O)OC[C@H]1O[C@H](CCON=C(C)CCN2CCCc3nc(C)c(C)cc32)C=C[C@@H]1OC(C)=O", "assay-metric": "composite z-score", "result": 1.33}
{"molecule": "C=CCOCC1CN2[C@@H](CC[C@@H](C)[C@@H]2c2ccc(Br)cc2)C(=O)O1 (some centres not stated)", "assay-metric": "composite z-score", "result": 0.157}
{"molecule": "CCN1C(=O)[C@H]2[C@H]3[C@H](O)[C@H](O)CC(=NOCC(C)C)[C@H]3CC[C@H]2C1=O", "assay-metric": "composite z-score", "result": -0.0775}
{"molecule": "CCOC(=O)CCN1C(=O)[C@H]2[C@H]3[C@H](O)[C@H](O)CC(=NNC(=O)OCc4ccc(OC)cc4)[C@H]3CC[C@H]2C1=O", "assay-metric": "composite z-score", "result": 0.451}
{"molecule": "COC(=O)[C@H](C)NC(=O)CCC1CC(OC(=O)NCCc2ccc(F)cc2)CC2(CCCC(COC(=O)NCC3CCCCC3)O2)O1 (some centres not stated)", "assay-metric": "composite z-score", "result": 1.39}

src = PubChem BioAssay
